Data provenance: paper PMC9928118

# Test system: GST-tagged Cn
# test.summary: PEPperPRINT peptide microarray binding assay with GST-tagged Cn
# assay.context: max over the duplicate spots (Location on chip)
Returns one of y or n; y when Chip Fluorescence (max) is >= 2.

Given LNDEIPEVRLNIISAL [SeqRBMlowT_4170] , state whether its Chip Fluorescence (max) is at least 2.
y

Entry to check: GGPGTPSRQGQTAAPS [SeqRBM_5534]
y

Entry to check: KAYMCPYMQFIAGGRK [SeqRBM_8989]
n

Entry to check: SSLYENALGIESFTLS [SeqRBMlowT_2888]
y

Next:
Given LMDLCPVVRLQIISAL [SeqRBM_7616] , state whether its Chip Fluorescence (max) is at least 2.
y

* * *

# Chip Fluorescence (mean) listing for each entry below
# Test system: GST-tagged Cn
# test.summary: PEPperPRINT peptide microarray binding assay with GST-tagged Cn
# assay.context: mean over the spots listed under Location on chip
# Description: We then estimated in-silico the binding strength of the various peptides to Cn by template-based docking followed by flexible backbone refinement using Modeller and PepCrawler (Figs 4 and S4). […] Fig 4 Medium-throughput filtering by structural modeling and microarray screening. […] (f) Scatter plot of the sequence likelihood (normalized by length, higher is better) against fluorescence level (higher is better, see Methods for details of the data analysis). […]
Could you keep your reply to the number by itself?

// solved cases for Chip Fluorescence (mean) follow
Requested read-out Chip Fluorescence (mean), target or system GST-tagged Cn, entry TFWTNPQYVITLEDPD [SeqRBMlowT_239]
0.7373

Entry to check: RAYINPFMQFQIGGNH [SeqRBMlowT_4074]
0.3097

Entry to check: VYWSNPQFIVKLEMVD [SeqRBM_6287]
1.027

Entry to check: SVWENATVRFNFFPDN [Seqshuffled_9917]
1.438

Entry to check: LMVSPPEITISPAELH [SeqRBM_5585]
0.761

Entry to check: KKMSPPCIDVHPLDSA [SeqRBM_2282]
0.293

Next:
Requested read-out Chip Fluorescence (mean), target or system GST-tagged Cn, entry STSSLPTFSFSSPVSH [SeqRBMlowT_1620]
0.3099

Entry to check: LKDQFPKVRLNIIDAP [SeqRBM_543]
0.6756

Entry to check: GELAIKNMKPWDVGGY [SeqRBM_3830]
1.402

Entry to check: YFFDRDTGAGKIEQEH [Seqrandom_9991]
-0.3443

Entry to check: RNPGTAPLTLKGHKKQ [SeqRBMlowT_6124]
0.4787

Entry to check: STKSSGRPSRSPERAS [SeqRGA2_Colletotrichum_sublineola]
-0.8116

Entry to check: STASLPTFSFSPLAPS [SeqRBMlowT_9999]
-0.6649

* * *

# Chip Fluorescence (max) listing for each entry below
# System: GST-tagged Cn
# test.summary: PEPperPRINT peptide microarray binding assay with GST-tagged Cn
# assay.context: GST-tagged Cn, max over the spots named in Location on chip
Could you keep your reply to the number by itself?

// solved cases for Chip Fluorescence (max) follow
Requested read-out Chip Fluorescence (max), target or system GST-tagged Cn, entry TFWHNPQYVINLEDPD [SeqCAPN11_Anopheles_dirus]
1.5542

Entry to check: KAYMCPYMQFIDGGRK [SeqRBMlowT_9280]
1.462

Entry to check: QPPQNPVATVSTAHHQ [SeqRBM_6519]
1.708

Entry to check: TFWTNPQFKITLEDPD [SeqRBMlowT_205]
1.84

Next:
Requested read-out Chip Fluorescence (max), target or system GST-tagged Cn, entry GDYMQGTLQAETGEHD [Seqshuffled_9624]
1.494

Entry to check: ADEAQPGIVVHVCELP [SeqRBMlowT_119]
1.734

Entry to check: TFWTNPQYVITLEEPD [SeqRBMlowT_2279]
1.482

Entry to check: RQPGQALLTLRGHKKQ [SeqRBMlowT_5816]
1.5016

Entry to check: HSKLIPKLSVQSPVHH [SeqRBMlowT_1714]
1.671

Entry to check: TPVSDHNFALDVSGKP [Seqshuffled_9616]
1.846

Entry to check: SLDEEPGISINEKPVG [Seqshuffled_9948]
1.684

Entry to check: RNPGQALLTLRGHSKQ [SeqRBMlowT_6189]
1.609

Entry to check: TFWTNPQFKVKLEDVD [SeqRBMlowT_6885]
1.498

Entry to check: KKMAPPCINIDPAPTN [SeqRBMlowT_309]
1.659

Entry to check: HSKFIPKLSIQSPVLH [SeqRBMlowT_6746]
1.7974
